# Method notes: NCI Yeast Anticancer Drug Screen. Data for the mlh1 rad18 strain (AID 175)
# Assay context: S. cerevisiae mlh1 rad18 strain growth inhibition; at 50.0 µM; active compounds read high
About 79,000 compounds went through this panel and 15% of them were active in at least one assay; those are over-represented in the sample as a whole.
Recorded metric: growth inhibition (%)
I only need the number, in %, no unit after it.

CC1=CC(C(=O)O)P(C)(=O)C1 (stereo unspecified)
-10.3
CCC(Br)(CC)C(N)=O
-27.9
NC(=O)CCCc1ccc([As]=O)cc1 (stereo unspecified)
9.75

Query "[C-]#[O+].[C-]#[O+].[C-]#[O+].[C-]#[O+].[Cr].c1ccc([PH+](c2ccccc2)c2ccccc2)cc1.c1ccc([PH+](c2ccccc2)c2ccccc2)cc1" yields growth inhibition of -1.55

Query O=C(C[n+]1ccccc1)C1CCc2ccccc2C1 (stereo unspecified) yields growth inhibition of 3.2

Query "S=C=NCCc1ccccc1" yields growth inhibition of 61.6

Query "Cc1cc(N(CCCl)CCCl)ccc1C=N/C(C#N)=C(\N)C#N" yields growth inhibition of -4.85

Query "CC(C)(OOC(C)(C)c1ccccc1)c1ccccc1" yields growth inhibition of -8.95

Query "O=C(CN1CCCCC1)c1ccc(Br)cc1" yields growth inhibition of 9.55

Query CN(C)CCC(O)c1c[nH]c2ccccc12 (stereo unspecified) yields growth inhibition of 1.15

----------
# Method notes: NCI Yeast Anticancer Drug Screen. Data for the mlh1 rad18 strain (AID 175)
# Assay context: S. cerevisiae mlh1 rad18 strain growth inhibition; at 50.0 µM
This is part of a sample that, as a whole, favours compounds with a hit. Of some 79,000 tested, about 15% had one in any assay. Activity calls are given as the source filed them. No stated cut-off is given here; in the data, active means growth inhibition above about 70%; inactive means the rest.
Pick from y for active, n for inactive when you respond.

N#C[S-].[Ce+3].c1cnc2c(c1)ccc1cccnc12.c1cnc2c(c1)ccc1cccnc12.c1cnc2c(c1)ccc1cccnc12
y
CCC(Br)C(N)=O (stereo not given)
n
O=C(N1CCCC1)C1(c2cccc(Cl)c2)CCNCC1
n
CC(C)(C)N1OC1C(Cl)(Cl)Cl (stereo not given)
n
CCN(CC)CCN(Cc1ccccc1)C(=O)C(O)(c1ccccc1)c1ccccc1
n
Cc1sc(Cc2ccccc2)nc1-c1ccc(N=Cc2ccc(N(CCCl)CCCl)cc2)cc1
y

Req: What classification did "Nc1nc(N)c(-c2ccc(Cl)c(Cl)c2)c(COc2cccc(CNS(=O)(=O)c3cccc(S(=O)(=O)F)c3)c2)n1" end up with in this test?
Resp: y

Req: What classification did CC1=NN(c2cccc(S(=O)(=O)O)c2)C(=O)C1N=Nc1cc(Cl)cc(S(=O)(=O)O)c1O.O.[Cr] (stereo not given) end up with in this test?
Resp: n

Req: What classification did N=C(N)SCc1ccc(Cl)c(Cl)c1 (tested in a mixture with another compound) end up with in this test?
Resp: n

Req: What classification did "CN1CN(c2ccccc2)C2(CCN(CCCSc3ccccc3NC(=O)/C=C/c3ccccc3)CC2)C1=O" end up with in this test?
Resp: n

----------
Each item that follows carries a reported growth inhibition.
# Method notes: NCI Yeast Anticancer Drug Screen. Data for the rad50 strain (AID 155);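 note: 0% = growth of vehicle-only cultures of the same strain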
# Assay context: S. cerevisiae rad50 strain growth inhibition; at 50.0 µM; active compounds read high
# Protocol: Growth inhibition of yeast strains with defined genetic alterations is measured as a screen for potential anti-cancer activity. Selected strains with alterations in DNA damage repair or cell cycle control were exposed to compounds and growth inhibition was measured relative to vehicle treated controls. The strain used in this assay is rad50
About 79,000 compounds went through this panel and 15% of them were active in at least one assay; those are over-represented in the sample as a whole.
I only need the number, in %, no unit after it.

Below are worked cases with known answers.
CCOc1ccc([N+](=O)[O-])cc1CNCCBr
3.3
CCCC1C(=O)NC(=O)NC1=O
6.3
CCOP(=O)(OCC)C(F)(F)CC1CCCCC1
-17.1
O=[N+]([O-])c1ccc(/C=C/C=C\c2ccc(S(=O)(=O)F)cc2Cl)cc1
2.55
CC(C)CCC(=O)O[C@H]1CC[C@@]2(C)C(=CC[C@@H]3[C@@H]2CC[C@]2(C)C(=O)CC[C@@H]32)C1
26.2

Query "[Pt].c1ccc([PH+](c2ccccc2)c2ccccc2)cc1.c1ccc([PH+](c2ccccc2)c2ccccc2)cc1.c1ccc([PH+](c2ccccc2)c2ccccc2)cc1.c1ccc([PH+](c2ccccc2)c2ccccc2)cc1" yields growth inhibition of 68.5
